Source listed as PubChem BioAssay (NCI).

# Tested on: HOP-92 NSCLC
# measurement.description: NCI-60 one-dose screen, 48 h
# run.conditions: 10 µM unless noted
This is part of a sample that, as a whole, favours compounds with a hit. Of some 83,000 tested, about 20% had one in any assay. The source made the active and inactive calls. How the source made its calls: active means growth percent below 10; inactive means the rest.
// classify into Y for active, N for inactive

Previously resolved entries follow.
compound | discrete.label
CCCCNC(=O)c1cc(NCc2cc(O)ccc2O)ccc1O | N
COc1c(C)cnc(CSc2nc(-c3ccc(C)cc3)cn2-c2ccc(Cl)cc2)c1C | N
O=C(NC1CCOCC1)c1ccc2c(c1)CN(c1ncc(Cc3cccc(-n4cccn4)c3)s1)CC2 | N
O=C(c1ccccc1)c1ccc(N2C(=O)C3C4c5ccccc5C(/C=C/C(=O)c5ccccn5)(c5ccccc54)C3C2=O)cc1 (stereo not given) | N
N[C@@H]1CCC[C@H]1NCCCCN1C(=O)c2cccc3cccc(c23)C1=O | N
CN(CCCCCCCCNc1ccnc2ccccc12)Cc1ccc(-c2ccc(-c3ccc(C#N)cc3)s2)cc1 | N

q: Any idea what this test logged for Cn1cc(-c2ccc3nc(-c4ccc(CC(=O)Nc5cc(C(C)(C)C)no5)cc4)cnc3c2)cn1 ?
a: Y

q: Then what about the compound COc1ccc(-c2cc(-c3cc(OC)ccc3OC)[nH]c(=O)c2C#N)cc1 ?
a: N

q: Then what about the compound CSc1nc2sc3cc(Cl)ccc3n2c(=N)c1C#N ?
a: N

q: Then what about the compound Nc1ccc(S(=O)(=O)Nc2ccsc2-c2nc(-c3ccccc3)no2)cc1 ?
a: N

q: Then what about the compound COc1ccc(C(=O)/C=C/c2cc3c(c(OC)c2)OCC(=O)N3)cc1 ?
a: N
